Molecular target: T1, WHRN NPDZ12 (UniProt Q9P202 33-377)
T1 construct: WHRN, residues 33-377 (NTD, PDZ1 and PDZ2) of UniProtKB Q9P202; Cloned into pET.32M.3C; Named Trx-WHRN NPDZ12 in SEC-MALS; also called Trx-WHRN NPDZ12; Whirlin; source: E. coli BL21 (DE3), purified (Ni2+-NTA, size-exclusion chromatography); not shown: Trx, N-terminal, kept
T1 sequence (looked up): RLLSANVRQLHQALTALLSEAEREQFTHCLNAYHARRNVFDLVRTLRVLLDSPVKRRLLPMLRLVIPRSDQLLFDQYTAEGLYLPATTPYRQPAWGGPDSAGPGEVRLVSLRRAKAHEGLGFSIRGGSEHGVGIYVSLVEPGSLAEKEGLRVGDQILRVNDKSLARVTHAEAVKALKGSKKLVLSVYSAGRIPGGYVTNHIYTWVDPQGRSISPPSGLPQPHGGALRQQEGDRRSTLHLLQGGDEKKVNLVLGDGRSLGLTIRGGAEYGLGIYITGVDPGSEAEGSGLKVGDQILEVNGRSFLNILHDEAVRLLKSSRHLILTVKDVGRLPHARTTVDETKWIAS
Assay: ITC; MicroCal iTC200, 25 °C; 50 mM tris pH 7.5-8.0, 300 mM NaCl, 1 mM DTT, 1 mM EDTA; cell 20–50 µM, syringe 400–800 µM; one-site binding model
Conditions: both partners purified
pKd: −log10 of the molar value.
readout type: pKd

Prompt: Could you tell me which pKd is on file for ADGRV1-CT (domain or fragment, UniProt Q8VHN7 6239-6298, looked up, ADGRV1 cytoplasmic region, residues 6239-6298 of UniProtKB Q8VHN7; Named Trx-ADGRV1-CT in SEC-MALS; also called Trx-ADGRV1-CT; VLGR1-CT; source: E. coli BL21 (DE3), purified (Ni2+-NTA, size-exclusion chromatography); not shown: Trx, N-terminal, kept) GSLIADEESQEFDDLIFALKTGAGLSVSDNESGQGSQEGGTLTDSQIVELRRIPIADTHL ?
Response: ~5.85

Sourced from paper PMC10039067
